experimental-system: UniProt Q61214
test-summary: Inhibition of mouse DYRK1A expressed in Escherichia coli after 20 mins
readout-name: IC50 (nM)

P. O=C(NCc1ccc(O)cc1O)c1ccc2ccc(C(=O)O)c(O)c2n1
Q. COc1ccc(/C=C/c2ccc3ccc(C(=O)O)c(O)c3n2)cc1O
Problem: Recorded IC50 values differ for P and Q ; which one is higher? Please respond with the label that marks your chosen entry.
Result: P

---

experimental-system: CDK1/Cyclin A (Homo sapiens, UniProt P06493)
Sequence (P06493 whole entry): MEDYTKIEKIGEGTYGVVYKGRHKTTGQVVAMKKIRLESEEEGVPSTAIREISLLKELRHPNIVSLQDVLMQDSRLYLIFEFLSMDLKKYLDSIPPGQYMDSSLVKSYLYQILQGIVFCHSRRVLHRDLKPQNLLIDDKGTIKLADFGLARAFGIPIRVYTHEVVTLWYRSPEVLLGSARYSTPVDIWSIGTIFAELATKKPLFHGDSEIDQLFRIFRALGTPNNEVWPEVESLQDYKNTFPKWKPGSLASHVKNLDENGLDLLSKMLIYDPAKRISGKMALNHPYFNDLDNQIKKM
Sequence (P20248 whole entry, further chain): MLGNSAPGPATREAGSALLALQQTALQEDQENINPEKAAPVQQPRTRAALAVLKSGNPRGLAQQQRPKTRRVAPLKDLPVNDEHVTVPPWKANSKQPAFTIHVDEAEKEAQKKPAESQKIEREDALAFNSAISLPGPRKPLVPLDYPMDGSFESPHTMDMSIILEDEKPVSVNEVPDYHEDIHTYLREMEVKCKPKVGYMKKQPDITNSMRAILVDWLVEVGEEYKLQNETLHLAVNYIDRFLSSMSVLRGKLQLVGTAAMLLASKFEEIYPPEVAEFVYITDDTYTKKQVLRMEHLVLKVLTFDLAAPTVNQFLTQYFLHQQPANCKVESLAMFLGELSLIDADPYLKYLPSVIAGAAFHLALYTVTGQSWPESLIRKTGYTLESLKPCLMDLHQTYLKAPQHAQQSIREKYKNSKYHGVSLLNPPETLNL
test-summary: Inhibition of CDK1/Cyclin A
pIC50: −log10 of the molar value.
readout-name: pIC50

molecule_smiles=COc1ccc(/C=C/c2ccc3ccc(C(=O)O)c(O)c3n2)cc1O data_value="< 5.00"

Let's switch to this compound now.
Problem: Record request: pIC50 value, item O=C(NCc1ccc(O)cc1O)c1ccc2ccc(C(=O)O)c(O)c2n1
Result: < 5.00
